target: Recombinant Src enzyme (Homo sapiens, UniProt P12931); experiment: Src HTRF assay
Sequence (P12931 whole entry): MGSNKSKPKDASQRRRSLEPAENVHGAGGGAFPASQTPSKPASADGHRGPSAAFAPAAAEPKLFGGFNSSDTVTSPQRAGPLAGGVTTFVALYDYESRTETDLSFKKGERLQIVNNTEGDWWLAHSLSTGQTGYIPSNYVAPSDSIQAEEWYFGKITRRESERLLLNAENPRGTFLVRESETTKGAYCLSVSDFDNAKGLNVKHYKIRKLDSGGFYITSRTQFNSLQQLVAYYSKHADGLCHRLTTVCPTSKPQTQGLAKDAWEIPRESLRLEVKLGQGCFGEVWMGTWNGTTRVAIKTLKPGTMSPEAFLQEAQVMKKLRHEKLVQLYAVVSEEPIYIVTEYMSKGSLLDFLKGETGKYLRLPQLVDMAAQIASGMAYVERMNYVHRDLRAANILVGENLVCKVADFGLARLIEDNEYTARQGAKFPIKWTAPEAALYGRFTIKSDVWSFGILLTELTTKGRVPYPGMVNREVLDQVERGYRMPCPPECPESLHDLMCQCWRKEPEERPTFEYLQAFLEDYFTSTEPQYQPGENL
pIC50: −log10 of the molar value.
Result type: pIC50

Field: example entries. Status: answers known.
1) COc1cc(N2CCC(OC)CC2)ccc1Nc1cc2c(ccn2S(=O)(=O)c2cccc3cccnc23)cn1
< 6.00
2) CN(c1ncccc1Cn1cc(C#N)c2cnc(Nc3ccc(N4CCNCC4)cc3)nc21)S(C)(=O)=O
< 6.00
3) CS(=O)(=O)Nc1ccccc1Cn1ccc2cnc(Nc3ccc(N4CCNCC4)cc3)nc21
> 7.70
4) COc1cc(N2CCNCC2)ccc1Nc1cc2c(cn1)cnn2S(=O)(=O)c1cccc2cccnc12
< 6.00
5) CC(=O)Nc1ccc(S(=O)(=O)n2ccc3cnc(Nc4ccc(CC#N)cc4)nc32)cc1
< 6.00
6) O=S(=O)(c1cccc2cccnc12)n1ccc2cnc(Nc3ccc(N4CC5CC4CN5)cc3)cc21 (stereo not shown)
< 6.00
7) Cc1cc(Nc2ncc3ccn(S(=O)(=O)c4cccc5cccnc45)c3n2)ccc1N1CCNCC1
> 7.70
8) COc1cc(N2CCNCC2)ccc1Nc1ncc2ccn(S(=O)(=O)c3cccc4cccnc34)c2n1
< 6.00

GET /values?readout=pIC50&item= CC(=O)Nc1cccc(Nc2ncc3ccn(S(=O)(=O)c4cccc(OC(F)(F)F)c4)c3n2)c1
< 6.00

// repeat for CN(c1ncccc1Cn1ccc2cnc(Nc3ccc(N4CCNCC4=O)cc3)nc21)S(C)(=O)=O and report
< 6.00

// repeat for COc1cccc(Nc2ncc3ccn(S(=O)(=O)c4ccccc4C#N)c3n2)c1 and report
< 6.00

* * *

Overview of recorded pIC50 for various compounds
molecular target: Recombinant Src enzyme (Homo sapiens); experiment: Src HTRF assay
pIC50: −log10 of the molar value.

1. CC1(C)CN(c2ccccn2)c2nc(Nc3ccc4c(c3)CC(=O)N4)ncc21
< 6.00
2. COc1cc(N2CCC(O)CC2)ccc1Nc1ncc2ccn(S(=O)(=O)c3cccc4cccnc34)c2n1
< 6.00
3. C[C@H]1CN(c2ccc(Nc3ncc4ccn(Cc5ccccc5N(C)S(C)(=O)=O)c4n3)cc2)CCN1C
> 7.70

# next compound below
GET /values?readout=pIC50&item= CN(c1ncccc1Cn1ccc2cnc(Nc3ccc(N4CCOCC4)cn3)nc21)S(C)(=O)=O
< 6.00

* * *

Biological target: recombinant human FAK1 (Homo sapiens, UniProt Q05397)
Construct: fused on or other part: N-terminal 6xHis tag
Sequence (Q05397 422-680 limits assumed): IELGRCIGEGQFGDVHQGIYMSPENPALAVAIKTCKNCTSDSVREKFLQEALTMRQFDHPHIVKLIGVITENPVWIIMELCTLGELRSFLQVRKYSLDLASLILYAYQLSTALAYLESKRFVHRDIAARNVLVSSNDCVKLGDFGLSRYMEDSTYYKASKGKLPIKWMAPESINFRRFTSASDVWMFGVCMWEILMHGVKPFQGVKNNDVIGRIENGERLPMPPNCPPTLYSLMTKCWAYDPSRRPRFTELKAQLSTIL
Test: FAK1 HTRF assay
Procedure: Active FAK1 was prepared for use in the Homogeneous Time-Resolved Fluorescence (HTRF) assay. Briefly, N-terminal 6 His tagged recombinant human FAK1, from residue 692-end (GenBank accession no. L13616) was expressed by Bacculovirus in sf9 cells. […] • 1. […] The readings were taken in Pherastar in HTRF mode (ext 337 nm, em 665 & 620 nm) • 9. The results were analyzed using Graphpad Prism® software after calculation the z factor signal window and % inhibition. • 10. The IC50 was calculated.
pIC50: −log10 of the molar value.
Result type: pIC50

Field: example entries. Status: answers known.
1. CC(=O)Nc1ccc(Nc2cc3c(cn2)c(C)nn3Cc2cccnc2N(C)S(C)(=O)=O)cc1
< 6.00
2. O=S(=O)(c1cccc2cccnc12)n1ccc2cnc(Nc3ccc(N4CCN(CCO)CC4)cc3)cc21
> 7.70
3. C[C@@H]1CN(c2ccc(Nc3ncc4ccn(Cc5ccccc5N(C)S(C)(=O)=O)c4n3)cc2C2CC2)CCN1
> 7.70

GET /values?readout=pIC50&item= COc1cc(Nc2ncc3ccn(Cc4cc(C)ccc4N(C)S(C)(=O)=O)c3n2)ccc1N1CCNCC1
> 7.70

// repeat for CC(=O)Nc1ccc(Nc2cc3c(cn2)c(C)nn3Cc2ccccc2OC(F)F)cc1 and report
< 6.00
